Recorded pIC50 for the following compounds
# Tested On: BTK enzyme (recombinant full-length BTK, hBTK) (Homo sapiens (Human), UniProt Q06187)
# Sequence (Q06187 whole entry): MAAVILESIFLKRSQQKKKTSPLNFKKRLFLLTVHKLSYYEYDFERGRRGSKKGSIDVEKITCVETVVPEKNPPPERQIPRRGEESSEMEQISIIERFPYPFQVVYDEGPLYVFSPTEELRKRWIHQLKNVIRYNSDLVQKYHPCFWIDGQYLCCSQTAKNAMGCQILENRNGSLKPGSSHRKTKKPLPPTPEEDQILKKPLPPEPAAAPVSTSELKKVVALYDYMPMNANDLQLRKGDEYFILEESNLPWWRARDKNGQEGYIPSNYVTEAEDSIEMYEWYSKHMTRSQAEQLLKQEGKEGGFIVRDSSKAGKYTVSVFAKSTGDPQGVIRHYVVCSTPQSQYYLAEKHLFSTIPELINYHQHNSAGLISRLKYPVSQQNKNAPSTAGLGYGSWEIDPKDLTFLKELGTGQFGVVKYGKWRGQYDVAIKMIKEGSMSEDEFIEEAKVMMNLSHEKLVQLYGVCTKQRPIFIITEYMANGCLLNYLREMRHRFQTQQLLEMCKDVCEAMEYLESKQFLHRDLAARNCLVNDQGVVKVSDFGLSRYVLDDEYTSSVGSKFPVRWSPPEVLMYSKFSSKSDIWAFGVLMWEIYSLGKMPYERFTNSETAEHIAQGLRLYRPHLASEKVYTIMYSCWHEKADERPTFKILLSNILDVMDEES
# Protocol Text: Btk enzyme activity assay, LANCE TR-FRET
# Condition Details: 50 pM hBTK, 2 μM biotin-A5-peptide, 25 μM ATP; 60 minute compound & enzyme incubation; read-out: BTK binding IC50
pIC50: −log10 of the molar value.
Reported Property: pIC50

compound="CCOc1cc(C(=O)Nc2cc(C(F)(F)F)ccn2)ccc1-c1nc(C23CCC(C(=O)O)(CC2=O)C(=O)C3)n2ccnc(N)c12 (stereo not shown) [Example 64]" numeric_readout=8.59
compound="C[C@H]1CO[C@@H](c2nc(-c3ccc(C(=O)Nc4cc(C(F)F)ccn4)cc3)c3c(N)ncc(Cl)n23)CN1[C@H]1CC[C@](C)(C(=O)O)CC1 [Example 205]" numeric_readout=8.89
compound="CC1(C(=O)O)CCCC(c2nc(-c3ccc(C(=O)Nc4cc(C5CC5)ccn4)cc3)c3c(N)nccn23)C1 (stereo not shown) [Example 153]" numeric_readout=8.59
compound="CC1(C(=O)O)CCC(c2nc(-c3ccc(C(=O)Nc4cc(C5CC5)ccn4)cc3F)c3c(N)ncc(Cl)n23)CC1 (stereo not shown) [Example 164]" numeric_readout=7.48
compound="COc1cc(C(=O)Nc2cc(C(F)(F)F)ccn2)cc(F)c1-c1nc(C23CCC(C(=O)O)(CC2)CC3)n2c(F)cnc(N)c12 [Example 122]" numeric_readout=9.04
compound="CC(C)[C@]1(C(=O)O)CC[C@@H](c2nc(-c3ccc(C(=O)Nc4cc(C(F)(F)F)ccn4)cc3)c3c(N)ncc(Cl)n23)C1 [Example 106]" numeric_readout=9.13
compound="Nc1nccn2c([C@@H]3CCC[C@H](C(=O)O)C3)nc(-c3ccc(C(=O)Nc4cc(OC5CC5)ccn4)cc3)c12 [Example 12]" numeric_readout=8.77
compound="CCOc1cc(C(=O)Nc2cc(C(F)(F)F)ccn2)ccc1-c1nc([C@H]2CC[C@@](C(=O)O)(C(C)C)C2)n2c(Cl)cnc(N)c12 [Example 111]" numeric_readout=7.60
compound="C[C@@]1(C(=O)O)CCC[C@@](C)(c2nc(-c3ccc(C(=O)Nc4cc(C(F)(F)F)ccn4)cc3)c3c(N)nccn23)C1 [Example 137]" numeric_readout=9.05
compound="CC1(C(=O)O)CCC(N2CCO[C@@H](c3nc(-c4ccc(C(=O)Nc5cc(C(F)(F)F)ccn5)cc4)c4c(N)nccn34)C2)CC1 (stereo partly shown) [Example 176]" numeric_readout=9.31
compound="COc1cc(C(=O)Nc2cc(C(F)(F)F)ccn2)ccc1-c1nc([C@H]2CN(C3CCC(C)(C(=O)O)CC3)CCO2)n2ccnc(N)c12 (stereo partly shown) [Example 180]" numeric_readout=8.89
compound="CCOc1cc(C(=O)Nc2cc(C(F)(F)F)ccn2)ccc1-c1nc([C@@H]2CC[C@@](C(=O)O)(C(C)C)C2)n2ccnc(N)c12 [Example 60]" numeric_readout=8.12
compound="C[C@@]1(C(=O)O)CCC[C@H](c2nc(-c3ccc(C(=O)Nc4cc(C5CC5)ccn4)cc3F)c3c(N)nccn23)C1 [Example 160]" numeric_readout=9.02
compound="Nc1nccn2c(-c3cccc(C(=O)O)c3)nc(-c3ccc(C(=O)Nc4cc(C(F)(F)F)ccn4)cc3)c12 [Example 23]" numeric_readout=9.25
compound="CCOc1cc(C(=O)Nc2cc(C(F)(F)F)ccn2)ccc1-c1nc([C@@H]2C[C@H]3CC[C@@H](C2)[C@H]3C(=O)O)n2ccnc(N)c12 [Example 105]" numeric_readout=8.72
compound="CC(C)(C(=O)O)N1CCO[C@@H](c2nc(-c3ccc(C(=O)Nc4cc(C(F)(F)F)ccn4)cc3)c3c(N)nccn23)C1 [Example 183]" numeric_readout=7.88
compound="CCOc1cc(C(=O)Nc2cc(C(F)(F)F)ccn2)cc(F)c1-c1nc([C@@H]2CC[C@](C)(C(=O)O)C2(C)C)n2ccnc(N)c12 [Example 113]" numeric_readout=9.32
compound="CCOc1cc(C(=O)Nc2cc(C(F)(F)F)n(C)n2)ccc1-c1nc([C@@H]2CC[C@@](C(=O)O)(C(C)C)C2)n2ccnc(N)c12 [Example 52]" numeric_readout=8.05
compound="Nc1nccn2c(-c3ccc(C(=O)O)nc3)nc(-c3ccc(C(=O)Nc4cc(C(F)(F)F)ccn4)cc3)c12 [Example 29]" numeric_readout=7.95
compound="Nc1nccn2c([C@H]3CN(C4CC(C(=O)O)C4)CCO3)nc(-c3ccc(C(=O)Nc4cc(C(F)(F)F)ccn4)cc3)c12 (stereo partly shown) [Example 179]" numeric_readout=9.03
compound="Nc1nccn2c(-c3ccc(C(=O)O)cc3)nc(-c3ccc(C(=O)Nc4cc(C(F)(F)F)ccn4)cc3)c12 [Example 26]" numeric_readout=9.01
compound="CC1(C)CC(c2nc(-c3ccc(C(=O)Nc4cc(C(F)(F)F)ccn4)cc3)c3c(N)nccn23)CCC1C(=O)O (stereo not shown) [Example 20]" numeric_readout=8.82
compound="CC(C)(C(=O)O)C1CCC(c2nc(-c3ccc(C(=O)Nc4cc(C(F)(F)F)ccn4)cc3)c3c(N)nccn23)C1 (stereo not shown) [Example 94]" numeric_readout=8.85
compound="C[C@H]1CO[C@@H](c2nc(-c3ccc(C(=O)Nc4cc(C(F)(F)F)ccn4)cc3F)c3c(N)ncc(Cl)n23)CN1[C@H]1CC[C@@](C)(C(=O)O)CC1 [Example 201]" numeric_readout=8.77
compound="C[C@H]1CO[C@@H](c2nc(-c3ccc(C(=O)Nc4cc(C(F)(F)F)ccn4)cc3F)c3c(N)ncc(Cl)n23)CN1[C@H]1CC[C@](C)(C(=O)O)CC1 [Example 200]" numeric_readout=9.38

Taken from patent US10087188B2.
